Documented solubility (g/100 g solution) across a set of compounds
assay: xn = mol fraction of the nth substance listed, in the solute-free solvent; details: 308.15 K; x2 = 0.3
Lab note: record the figure alone, no unit after it.

[[record]]
compound = "COC1=CC(=O)CC(C)C12Oc1c(Cl)c(OC)cc(OC)c1C2=O (stereo not given) + CC(C)=O + CC(C)O"
measuredvalue = 1.22

[[record]]
compound = "COC1=CC(=O)CC(C)C12Oc1c(Cl)c(OC)cc(OC)c1C2=O (stereo not given) + CC(=O)CC(C)C + CC(C)O"
measuredvalue = 0.869

[[record]]
compound = "O=C(O)c1ccc(C(=O)O)o1 + O + COCCOC"
measuredvalue = 3.9

[[record]]
compound = "O=C1CCc2ccc(OCCCCN3CCN(c4cccc(Cl)c4Cl)CC3)cc2N1 + CCC(C)=O + CC(C)=O"
measuredvalue = 3.02


Determine its reported solubility (g/100 g solution): CCCCOc1ccc(C(=O)CCN2CCCCC2)cc1.Cl + CCO + CCOC(C)=O 19.6

Determine its reported solubility (g/100 g solution): CCCCOc1ccc(C(=O)CCN2CCCCC2)cc1.Cl + CCO + O 53.2

Determine its reported solubility (g/100 g solution): CCCCOc1ccc(C(=O)CCN2CCCCC2)cc1.Cl + CO + C1CCOC1 22.6

Determine its reported solubility (g/100 g solution): O=C1CCc2ccc(OCCCCN3CCN(c4cccc(Cl)c4Cl)CC3)cc2N1 + CCC(C)=O + CCCO 3.67

Determine its reported solubility (g/100 g solution): O=C(O)c1ccc(C(=O)O)o1 + C1COCCO1 + O 4.14

Determine its reported solubility (g/100 g solution): O=C(O)c1ccc(C(=O)O)o1 + C1CCOC1 + O 5.94

Determine its reported solubility (g/100 g solution): CC(=O)OC(c1ccccc1)C(Cl)(Cl)Cl (stereo not given) + CC(C)O + O 1.93

Determine its reported solubility (g/100 g solution): COC1=CC(=O)CC(C)C12Oc1c(Cl)c(OC)cc(OC)c1C2=O (stereo not given) + CCC(C)=O + CC(C)O 1.11

Determine its reported solubility (g/100 g solution): O=C(O)c1ccc(C(=O)O)o1 + O + COCCOCCOC 2.96

Determine its reported solubility (g/100 g solution): O=C1CCc2ccc(OCCCCN3CCN(c4cccc(Cl)c4Cl)CC3)cc2N1 + CCC(C)=O + CCOC(C)=O 2.28

Determine its reported solubility (g/100 g solution): CCCCOc1ccc(C(=O)CCN2CCCCC2)cc1.Cl + CCO + CCCCCC 14.9

Each recorded value in this set is attributed to the CheMixHub drug solubility set.
